test system: RPMI-8226 cells; assay: NCI-60 panel antiproliferation, RPMI-8226; assay type: cell-based, human; conditions: Homo sapiens, NCI 60-cell panel
pIC50: −log10 of the molar value.

| molecule | pIC50 |
| --- | --- |
| C=CC[C@H]1C[C@]2([C@@H](C)Cc3ccc(OC)c(F)c3)OCOC2=CC1=O [Compound 37] | 7.13 |

----------
system: SNB-75 cells; test: NCI-60 panel antiproliferation, SNB-75; assay type: cell-based, human; settings: Homo sapiens, NCI 60-cell panel
measured-metric: IC50 (nM)

| input-smiles | measured-metric | data-value |
| --- | --- | --- |
| C=CC[C@H]1C[C@]2([C@@H](C)Cc3ccc(OC)c(F)c3)OCOC2=CC1=O | IC50 | 49 |
